target.system: immobilized human serum albumin (Homo sapiens)
Construct: purchased Chiralpak (Chiraltech) 34712
Sequence (P02768 25-609): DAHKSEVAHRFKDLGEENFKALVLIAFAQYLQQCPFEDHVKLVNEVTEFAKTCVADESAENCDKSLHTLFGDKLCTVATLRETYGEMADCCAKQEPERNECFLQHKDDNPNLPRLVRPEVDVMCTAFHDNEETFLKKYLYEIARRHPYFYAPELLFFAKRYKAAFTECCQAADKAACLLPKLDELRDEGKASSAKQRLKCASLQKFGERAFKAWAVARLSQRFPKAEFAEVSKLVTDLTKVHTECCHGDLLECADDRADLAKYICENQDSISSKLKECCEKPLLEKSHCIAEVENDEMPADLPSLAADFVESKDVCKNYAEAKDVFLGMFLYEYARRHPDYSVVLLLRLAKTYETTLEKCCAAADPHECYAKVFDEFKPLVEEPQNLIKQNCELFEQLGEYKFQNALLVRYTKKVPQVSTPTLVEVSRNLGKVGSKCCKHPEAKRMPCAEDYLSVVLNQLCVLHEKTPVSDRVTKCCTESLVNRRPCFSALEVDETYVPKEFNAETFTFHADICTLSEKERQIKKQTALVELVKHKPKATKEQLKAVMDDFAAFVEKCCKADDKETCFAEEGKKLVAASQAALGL
experiment: Albumin binding: affinity chromatography on columns with immobilized human serum albumin (net retention time)
assay.conditions: isolated binders; HSA column 25° C., PBS pH 7.4/isopropanol gradient
Record form. Attribute: NRT [min] (net retention time on columns with immobilized human serum albumin). Fill in for each entry.
Give your result in min as a bare value.

Ask | Entry O=C(O)CCCCCCCCCCCc1cccc(S(=O)(=O)Nc2ccc(C(=O)NCCOCCOCC(=O)NCCOCCOCC(=O)O)cn2)c1 [Binder 40] has what NRT [min] (net retention time on columns with immobilized human serum albumin)?
Reply | 11.44

Ask | Entry O=C(O)CCCCCCCCCCCCCCCOc1ccc(S(=O)(=O)Nc2ncc(C(=O)NCCOCCOCC(=O)NCCOCCOCC(=O)O)cn2)cc1F has what NRT [min] (net retention time on columns with immobilized human serum albumin)?
Reply | 13.53

Ask | Entry O=C(O)CCCCCCCCCCCCCOc1ccc(S(=O)(=O)Nc2ccc(C(=O)NCCOCCOCC(=O)NCCOCCOCC(=O)O)cn2)cc1 has what NRT [min] (net retention time on columns with immobilized human serum albumin)?
Reply | 13.9

Ask | Entry O=C(O)CCCCCCCCCc1ccc(Oc2ccc(S(=O)(=O)Nc3ncc(C(=O)NCCOCCOCC(=O)NCCOCCOCC(=O)O)cn3)cc2)cc1F has what NRT [min] (net retention time on columns with immobilized human serum albumin)?
Reply | 14.56

Ask | Entry O=C(O)CCCCCCCCCCCCCCc1cc(Oc2ccc(S(=O)(=O)Nc3ncc(C(=O)NCCOCCOCC(=O)NCCOCCOCC(=O)O)cn3)cc2)ccc1F has what NRT [min] (net retention time on columns with immobilized human serum albumin)?
Reply | 15.29

Ask | Entry O=C(O)CCCCCCCCCCCCCCOc1ccc(S(=O)(=O)Nc2ccc(C(=O)NCCOCCOCC(=O)NCCOCCOCC(=O)O)cn2)cc1 [Binder 9] has what NRT [min] (net retention time on columns with immobilized human serum albumin)?
Reply | 14.01
